# Test summary: Phase 1/1B first-in-human study, safety and PK (Cohorts 1-5)
# Assay type: in vivo
# Experimental parameters: human, plasma, oral, 250 mg, 250 mg QD, C1D1, N = 1; read-out: t1/2 (converted)
Metric name: half-life (h)
Give bare numbers, in h.

Inquiry: Query: half-life; subject: Cc1c(N2CCC3(CC2)CO[C@@H](C)[C@H]3N)nc(C)n(-c2cccc(Cl)c2Cl)c1=O (atropisomer, axis not shown; (Ra)) [Compound (10b)]
Reply text: 9.44

---

# Test summary: Phase 1/1B first-in-human study, safety and PK (Cohorts 1-5)
# Type: in vivo
# Experimental parameters: human, plasma, oral, 550 mg, 550 mg QD, C1D1, N=6
Metric name: AUC(0-t)

Inquiry: Query: AUC(0-t); subject: Cc1c(N2CCC3(CC2)CO[C@@H](C)[C@H]3N)nc(C)n(-c2cccc(Cl)c2Cl)c1=O (atropisomer, axis not shown; (Ra)) [Compound (10b)]
Reply text: 37700 ng·h/mL

---

# System: KYSE-520 xenograft tumors
# Test summary: Pharmacodynamics in KYSE-520 xenograft tumors (DUSP6 / MPAS-plus mRNA)
# Assay type: in vivo, NSG mice
# Experimental parameters: prediction used as reference line for human plasma levels; read-out: predicted efficacious Cmax
Metric name: Cmax (µM)
Answers are plain numbers, in µM.

Inquiry: Query: Cmax; subject: Cc1c(N2CCC3(CC2)CO[C@@H](C)[C@H]3N)nc(C)n(-c2cccc(Cl)c2Cl)c1=O (atropisomer, axis not shown; (Ra)) [Compound (10b)]
Reply text: 5.3

---

# Test summary: Phase 1/1B first-in-human study, safety and PK (Cohorts 1-5)
# Type: in vivo
# Experimental parameters: human, plasma, po, 150 mg, 150 mg QD, C1D1, N=3; in parentheses: interpret with caution (large extrapolated AUC); read-out: t1/2 (converted)
Metric name: half-life (h)
Answers are plain numbers, in h.

Inquiry: Query: half-life; subject: Cc1c(N2CCC3(CC2)CO[C@@H](C)[C@H]3N)nc(C)n(-c2cccc(Cl)c2Cl)c1=O (atropisomer, axis not shown; (Ra)) [Compound (10b)]
Reply text: 15.6

---

# Test summary: Single-dose pharmacokinetics, Beagle dog
# Type: in vivo, male)
# Experimental parameters: male, Beagle, dog, plasma; oral 10 mg/kg, free base; read-out: AUC0→24
Metric name: AUC(0-t)

Inquiry: Query: AUC(0-t); subject: Cc1c(N2CCC3(CC2)CO[C@@H](C)[C@H]3N)nc(C)n(-c2cccc(Cl)c2Cl)c1=O (atropisomer, axis not shown; (Ra)) [Compound (10b)]
Reply text: 48.2 µM·h

---

# Test summary: Phase 1/1B first-in-human study, safety and PK (Cohorts 1-5)
# Assay type: in vivo
# Experimental parameters: human, plasma, oral, 550 mg, 550 mg QD, C1D1, N=6
Metric name: Tmax (h)
Numbers only, in h.

Inquiry: Query: Tmax; subject: Cc1c(N2CCC3(CC2)CO[C@@H](C)[C@H]3N)nc(C)n(-c2cccc(Cl)c2Cl)c1=O (atropisomer, axis not shown; (Ra)) [Compound (10b)]
Reply text: 2.67

---

# Assayed target: Hematopoietic Progenitor Kinase 1 (HPK1) (Homo sapiens)
# Sequence (Q92918 whole entry): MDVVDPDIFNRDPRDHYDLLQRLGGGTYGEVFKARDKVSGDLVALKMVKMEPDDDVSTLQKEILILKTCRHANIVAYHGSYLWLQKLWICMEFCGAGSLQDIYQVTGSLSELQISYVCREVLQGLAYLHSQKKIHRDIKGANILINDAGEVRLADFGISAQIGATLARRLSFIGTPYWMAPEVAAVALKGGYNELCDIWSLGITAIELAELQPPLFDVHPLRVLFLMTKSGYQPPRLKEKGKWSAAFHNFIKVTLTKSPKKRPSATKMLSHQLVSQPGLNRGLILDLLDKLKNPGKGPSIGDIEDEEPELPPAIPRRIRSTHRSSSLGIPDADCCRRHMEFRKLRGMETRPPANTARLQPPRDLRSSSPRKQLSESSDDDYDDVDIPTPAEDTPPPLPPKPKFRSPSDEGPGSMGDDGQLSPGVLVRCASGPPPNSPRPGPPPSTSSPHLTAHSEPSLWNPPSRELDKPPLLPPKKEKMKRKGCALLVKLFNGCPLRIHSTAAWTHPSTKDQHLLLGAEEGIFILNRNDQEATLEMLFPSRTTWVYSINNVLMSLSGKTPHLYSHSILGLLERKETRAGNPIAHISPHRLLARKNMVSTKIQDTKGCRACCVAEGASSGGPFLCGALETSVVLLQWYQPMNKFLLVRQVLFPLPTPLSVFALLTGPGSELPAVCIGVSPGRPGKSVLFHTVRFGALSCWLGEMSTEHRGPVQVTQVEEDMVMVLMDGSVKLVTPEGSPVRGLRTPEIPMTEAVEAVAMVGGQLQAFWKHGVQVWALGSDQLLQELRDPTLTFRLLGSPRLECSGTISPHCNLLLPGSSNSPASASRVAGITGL
Metric name: pKd
One number for each entry, as −log10 of the molar value.

Inquiry: Query: pKd; subject: Cc1c(N2CCC3(CC2)CO[C@@H](C)[C@H]3N)nc(C)n(-c2cccc(Cl)c2Cl)c1=O (atropisomer, axis not shown; (Ra)) [Compound (10b)]
Reply text: 5.01

---

# Test summary: Single oral dose exposure in NOD/SCID mice
# Format: in vivo
# Experimental parameters: male, mouse, plasma, single oral dose 1 mg/kg
Metric name: AUC(0-inf) (ng·h/mL)
One number for each entry, in ng·h/mL.

Inquiry: Query: AUC(0-inf); subject: Cc1c(N2CCC3(CC2)CO[C@@H](C)[C@H]3N)nc(C)n(-c2cccc(Cl)c2Cl)c1=O (atropisomer, axis not shown; (Ra)) [Compound (10b)]
Reply text: 1030

---

# Test summary: Phase 1/1B first-in-human study, safety and PK (Cohorts 1-5)
# Type: in vivo
# Experimental parameters: human, plasma, oral, 150 mg, 150 mg QD, C2D1, N=3
Metric name: Cmax (ng/mL)
Answers are plain numbers, in ng/mL.

Inquiry: Query: Cmax; subject: Cc1c(N2CCC3(CC2)CO[C@@H](C)[C@H]3N)nc(C)n(-c2cccc(Cl)c2Cl)c1=O (atropisomer, axis not shown; (Ra)) [Compound (10b)]
Reply text: 1120

---

# Test summary: Phase 1/1B first-in-human study, safety and PK (Cohorts 1-5)
# Format: in vivo
# Experimental parameters: human, plasma, oral, 400 mg, 400 mg QD, C1D1, N=5
# Text: The initial results were from Cohorts 1-5 of the Phase 1/1B First-in-Human Study of Example 6. No safety findings impacting the risk or benefit of compound (10b) reported in the 19 patients dosed. Nine (9) treatment-emergent serious adverse events (SAEs) were reported in 7 patients, none of which were deemed related to the treatment with compound (10b).
Metric name: Cmax
Report the figure along with its unit, number first.

Inquiry: Query: Cmax; subject: Cc1c(N2CCC3(CC2)CO[C@@H](C)[C@H]3N)nc(C)n(-c2cccc(Cl)c2Cl)c1=O (atropisomer, axis not shown; (Ra)) [Compound (10b)]
Reply text: 1540 ng/mL

---

# Test summary: Phase 1/1B first-in-human study, safety and PK (Cohorts 1-5)
# Type: in vivo
# Experimental parameters: human, plasma, oral, 250 mg, 250 mg QD, C2D1, N=1
Metric name: AUC(0-t) (ng·h/mL)
One number for each entry, in ng·h/mL.

Inquiry: Query: AUC(0-t); subject: Cc1c(N2CCC3(CC2)CO[C@@H](C)[C@H]3N)nc(C)n(-c2cccc(Cl)c2Cl)c1=O (atropisomer, axis not shown; (Ra)) [Compound (10b)]
Reply text: 21600

---

# Test summary: Single-dose pharmacokinetics, Sprague Dawley rat
# Format: in vivo, male)
# Experimental parameters: male, Sprague Dawley, rat, plasma; oral 10 mg/kg, free base
Metric name: Cmax (µM)
Numbers only, in µM.

Inquiry: Query: Cmax; subject: Cc1c(N2CCC3(CC2)CO[C@@H](C)[C@H]3N)nc(C)n(-c2cccc(Cl)c2Cl)c1=O (atropisomer, axis not shown; (Ra)) [Compound (10b)]
Reply text: 3.05

---

# Test summary: Phase 1/1B first-in-human study, safety and PK (Cohorts 1-5)
# Format: in vivo
# Experimental parameters: human, plasma, oral, 150 mg, 150 mg QD, C1D1, N=3
Metric name: Cmax (ng/mL)
Give bare numbers, in ng/mL.

Inquiry: Query: Cmax; subject: Cc1c(N2CCC3(CC2)CO[C@@H](C)[C@H]3N)nc(C)n(-c2cccc(Cl)c2Cl)c1=O (atropisomer, axis not shown; (Ra)) [Compound (10b)]
Reply text: 651

---

# Test summary: Phase 1/1B first-in-human study, safety and PK (Cohorts 1-5)
# Assay type: in vivo
# Experimental parameters: human, plasma, oral, 400 mg, 400 mg QD, C1D1, N = 1; read-out: t1/2 (converted)
Metric name: half-life
Report the figure along with its unit, number first.

Inquiry: Query: half-life; subject: Cc1c(N2CCC3(CC2)CO[C@@H](C)[C@H]3N)nc(C)n(-c2cccc(Cl)c2Cl)c1=O (atropisomer, axis not shown; (Ra)) [Compound (10b)]
Reply text: 10.1 h

---

# Test summary: Single-dose pharmacokinetics, Beagle dog
# Assay type: in vivo, male)
# Experimental parameters: male, Beagle, dog, plasma; IV 1 mg/kg, free base
# Method: The pharmacokinetic (PK) parameters of Compound (10b) (freebase) were determined following single intravenous (IV) and oral (PO) administration in female CD-1 mouse, female C57BL/6 mouse (PO only), male Sprague Dawley rat, male Beagle dog, and male Cynomolgus monkey. […]
Metric name: half-life (h)
Give bare numbers, in h.

Inquiry: Query: half-life; subject: Cc1c(N2CCC3(CC2)CO[C@@H](C)[C@H]3N)nc(C)n(-c2cccc(Cl)c2Cl)c1=O (atropisomer, axis not shown; (Ra)) [Compound (10b)]
Reply text: 8.23

---

# Test summary: Single oral dose exposure in NOD/SCID mice
# Format: in vivo
# Experimental parameters: male, mouse, plasma, single oral dose 100 mg/kg
Metric name: AUC(0-inf) (µg·h/mL)
One number for each entry, in µg·h/mL.

Inquiry: Query: AUC(0-inf); subject: Cc1c(N2CCC3(CC2)CO[C@@H](C)[C@H]3N)nc(C)n(-c2cccc(Cl)c2Cl)c1=O (atropisomer, axis not shown; (Ra)) [Compound (10b)]
Reply text: 123

---

# Test summary: Phase 1/1B first-in-human study, safety and PK (Cohorts 1-5)
# Type: in vivo
# Experimental parameters: human, plasma, oral, 250 mg, 250 mg QD, C1D1, N=2 (1 subject excluded)
Metric name: AUC(0-t) (ng·h/mL)
Answers are plain numbers, in ng·h/mL.

Inquiry: Query: AUC(0-t); subject: Cc1c(N2CCC3(CC2)CO[C@@H](C)[C@H]3N)nc(C)n(-c2cccc(Cl)c2Cl)c1=O (atropisomer, axis not shown; (Ra)) [Compound (10b)]
Reply text: 10600

From: patent US20250213563A1
